The entries below come with measured TGI values attached.
Test system: HT29 colon
Test: NCI tumour cell line growth inhibition, 48 h

Molecule: CN(C)CCOc1cc2c(c3ccccc13)-c1ccccc1C2O (configuration not stated)
TGI: 27.8 µM
//
Molecule: c1ccc2c(c1)Cc1c(Cc3csc4ccccc34)ccc3cccc-2c13
TGI: > 100 µM
//
Molecule: O=C(Nc1cc(Cl)ccc1O)c1ccccc1Nc1ccnc(C(F)(F)F)c1
TGI: 11.5 µM

TGI lookup needed for `O=C1NC2(CCCCC2)C(=O)N1CCN(CCCl)CCCl` , thanks.
> 250 µM

Another molecule to check: O=C(CC1C(=O)Nc2ccccc2S1(=O)=O)Nc1ccc(Cl)cc1 (configuration not stated)
> 100 µM

Another molecule to check: CCCCSCC(NC(=O)/C=C/c1c(C)[nH]c(=O)[nH]c1=O)C(=O)OC (configuration not stated)
357 µM

* * *

The entries below come with measured TGI values attached.
Test system: HOP-92 NSCLC
Assay: NCI tumour cell line growth inhibition, 48 h
Provide only the numeric value, understood in µM.

Look over these answered cases.
Compound: Clc1ccc2c(c1)N(C1CCCN(Cc3ccccc3)C1)c1ccccc1S2 (stereo not given)
TGI / µM: 74.2

Compound: CCN(CC)CCN1c2nc3ccccc3cc2Sc2cc3ccccc3nc21
TGI / µM: 3.2

Compound: CCCCSCC(NC(=O)/C=C/c1c(C)[nH]c(=O)[nH]c1=O)C(=O)OC (stereo not given)
TGI / µM: 189

TGI lookup needed for `COCCc1n(Cc2ccc3ccccc3c2)c2ccccc2[n+]1Cc1ccc2ccccc2c1` , thanks.
1.13

Another compound to check: COc1ccccc1[As]=[As]c1ccccc1OC (stereo not given)
0.228

* * *

Test system: NCI-H23 lung
Test: NCI tumour cell line growth inhibition, 48 h
Reported property: TGI (µM)
Provide only the numeric value, understood in µM.

Compound: COc1c(C(C)(C)C)cc(CC2C(=O)C=CC2=O)cc1C(C)(C)C
System name: NCI-H23 lung
Unit tag: µM
TGI: 48.9

Compound: CCN1C(=O)N(CC)C2C1NN=c1s/c(=C3\C(=O)N(C4CCCC4)c4ccccc43)c(=O)n12 (centres undefined)
System name: NCI-H23 lung
Unit tag: µM
TGI: 13.5

Compound: COc1cc(-c2nc3ccccc3o2)cc(CN2CCCCC2)c1O
System name: NCI-H23 lung
Unit tag: µM
TGI: 5.26

Compound: CC1=C(C(=O)Nc2ccc(F)c(Cl)c2)C(c2cccc(Oc3ccccc3)c2)NC(=S)N1 (centres undefined)
System name: NCI-H23 lung
Unit tag: µM
TGI: 39.4

Compound: Oc1[nH]c2ccccc2c1/C=c1/ccc2c(c1)N=C(c1ccc(C(F)(F)F)cc1)N=2
System name: NCI-H23 lung
Unit tag: µM
TGI: 15.7

Compound: COC1=C2CC(C)CC(OC)C(OC(=O)CN)[C@H](C)/C=C(\C)C(OC(N)=O)C(OC)/C=C\C=C(/C)C(=O)NC(=CC1=O)C2=O (some centres undefined)
System name: NCI-H23 lung
Unit tag: µM
TGI: 1.77

TGI lookup needed for CC(=O)c1ccccc1NC(=O)C(=O)C(C(=O)c1ccccc1-c1ccccc1)C1OC(=O)c2ccccc21 (centres undefined) , thanks.
31

Another compound to check: `CCC(=O)N1C/C(=C/c2ccc(Br)cc2)C(=O)/C(=C/c2ccc(Br)cc2)C1`
3.46
